# system.name: T1, N-hCD73-his (N-terminal domain of human CD73, residues 26-336, His tag) (human, UniProt P21589 26-336)
# T1 sequence: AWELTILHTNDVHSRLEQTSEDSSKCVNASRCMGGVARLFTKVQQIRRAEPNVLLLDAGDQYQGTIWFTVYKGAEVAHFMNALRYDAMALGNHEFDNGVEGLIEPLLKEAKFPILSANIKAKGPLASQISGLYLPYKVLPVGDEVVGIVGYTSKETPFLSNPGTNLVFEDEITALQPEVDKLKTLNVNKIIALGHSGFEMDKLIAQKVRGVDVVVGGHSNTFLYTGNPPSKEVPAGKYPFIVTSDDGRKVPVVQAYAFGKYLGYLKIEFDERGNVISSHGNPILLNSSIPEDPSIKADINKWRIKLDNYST
# test.method.notes: SPR, mAb captured on protein A
quantity.kind: Kd (nM)
Output spec: scalar in nM, unitless text.

Let me know recorded Kd for 10D2 (antibody, human IgG4, kappa, V domains shown, also called 10D2-2) VH: QVQLVESGGGVVQPGRSLRLSCAASGFTFSNYGLHWVRQAPGKGLEWVAVIRYDGSNKYYADSVKGRFTISRDNSKNTLYLQMSSLRAEDTAVYYCARGGSSWYPDGLDVWGQGTTVTVSS VL: DIQMTQSPSSLSASVGDRVTITCRASQGISSWLAWYQQKPEKAPKSLIYAASSLQSGVPSRFSGSGSGTDFTLTISSLQPEDFATYYCQQYNSYPLTFGGGTKVEIKR , thanks. 1.6

Let me know recorded Kd for 11A6 (antibody, human IgG1, kappa, V domains shown, IgG1za; also called 11A6-1) VH: EVQLVESGGNLVQPGRSLRLSCAASGFTFDDYAMHWVRQAPGKGLEWVSGISWNNNDIGYADSVKGRFIISRDNAKNSLYLQMNSLRPEDTALYYCVKGYYVILTGLDYWGQGTPVTVSS VL: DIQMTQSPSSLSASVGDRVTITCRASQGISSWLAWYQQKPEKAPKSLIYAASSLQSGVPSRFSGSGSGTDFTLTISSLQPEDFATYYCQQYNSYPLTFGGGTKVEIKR , thanks. 140

Let me know recorded Kd for 24H2 (antibody, human IgG4, kappa, V domains shown, also called 24H2-1) VH: QVQLVESGGGVVQPGRSLRLSCAASGFTFSNYGMHWVRQAPGKGLEWVAVIWYDGGNKYYADSVKGRFTISRDNSKNTLFLQMNSLRAEDTAVYYCARGGSSWYPDAFDIWGQGTMVTVSS VL: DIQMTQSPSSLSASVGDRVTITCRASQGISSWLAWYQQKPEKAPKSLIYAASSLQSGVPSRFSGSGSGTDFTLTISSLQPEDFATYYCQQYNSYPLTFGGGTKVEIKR , thanks. 14

Let me know recorded Kd for 5F8 (antibody, human IgG1, kappa, V domains shown, IgG1za; VK2 also expressed; also called 5F8-1) VH: EVQLVESGGGLVQPGGSLRLSCAASGFTFSSYWMHWVRQAPGKGLVWVSRIISDGSSTGYADSVKGRFTISRDNAKNTLYLQMNSLRAEDTAVYYCAREFSSGWYFDYWGQGTLVTVSS VL: AIQLTQSPSSLSASVGDRVTITCRASQGISSALAWYQQKPGKAPKLLIYDASSLESGVPSRFSGSGSGTDFTLTISSLQPEDFATYYCQQFSSYPRTFGQGTKVEIKR , thanks. 41
